Molecular target: SARS-CoV-2 WA-1 Spike on pseudovirions (SARS-CoV-2, UniProt P0DTC2 14-1255)
Experiment: cell-based or functional assay
Each entry below carries its recorded pseudovirus neutralization IC80.
assay metric: pseudovirus neutralization IC80

1. ShAb01-Foldon (ShAb01 VNAR-KESlinker-Foldon-3c-His8-Strep) (VNAR) VNAR: ARVDQTPRSVTKETGESLTINCVLRDSNCALSSTHWYRKKSGSTNEERILQGRRYVETVNSGSKSFSLRINDLRVEDSGTYRCKVYWGNSWQDKFCPGLGSYEYGDGTAVTVNK = 0.488 mg/L
2. ShAb01H06K (ShAb01Hole-06Knob) (bispecific antibody, V domains shown) V domain 1: ARVDQTPRSVTKETGESLTINCVLRDSNCALSSTHWYRKKSGSTNEERILQGRRYVETVNSGSKSFSLRINDLRVEDSGTYRCKVYWGNSWQDKFCPGLGSYEYGDGTAVTVNS V domain 2: ARVDQTPRSVTKETGESLTINCVLRDASYALGSTCWYRKKSGSTNEESISKGGRYVETVNSGSKSFSLRINDLTVEDGGTYRCGVGRGLGVGCDYPLCSYSYAACGDGTAVTVNS = 0.763 mg/L
3. ShAb06H02K (ShAb06Hole-02Knob) (bispecific antibody, V domains shown) V domain 1: ARVDQTPRSVTKETGESLTINCVLRDASYALGSTCWYRKKSGSTNEESISKGGRYVETVNSGSKSFSLRINDLTVEDGGTYRCGVGRGLGVGCDYPLCSYSYAACGDGTAVTVNS V domain 2: ARVDQTPQTITKETGESLTINCVLRDSNCALASTDWYRKKSGSTNEESISKGGRYVETVNSGSKSFSLRINDLTVEDSGTYRCNAWDSWETRQLKCDYDVYGGGTVVTVNS = 0.206 mg/L
4. ShAb02-Foldon (ShAb02 VNAR-KESlinker-Foldon-3c-His8-Strep) (VNAR) VNAR: ARVDQTPQTITKETGESLTINCVLRDSNCALASTDWYRKKSGSTNEESISKGGRYVETVNSGSKSFSLRINDLTVEDSGTYRCNAWDSWETRQLKCDYDVYGGGTVVTVNK = 1.77 mg/L

All figures here come from patent US20230331823A1.
